These measurements were taken from PubChem BioAssay AID248.

Tested on: L1210 leukemia ip in BDF1 mice, survival T/C
Experiment: NCI In Vivo Anticancer Drug Screen. Data for tumor model L1210 Leukemia (intraperitoneal) in B6D2F1 (BDF1) mice
Conditions: endpoint: mean survival time; dose: 20.0 mg/kg/injection; schedule: Q01DX001 (ip); vehicle: carboxymethylcellulose (CMC); higher = longer survival
Toxic doses and inconclusive results are not listed.
What T/C was measured for each of the following?

Note T/C for the compound shown: CCCCCCOc1ccc(CC(N)C(=O)O)cc1N(CCCl)CCCl (centres undefined)
122 % of control

Note T/C for the compound shown: `CC(=O)c1ccc(N2CCNCC2)cc1`
107 % of control

Note T/C for the compound shown: `Nc1nc(N)c2cc(CNc3ccc(C(=O)NC(C(=O)O)C(=O)O)cc3)ccc2n1`
89 % of control

Note T/C for the compound shown: `COc1cc(C=Nc2ccc(-c3csc(COc4ccccc4)n3)cc2)ccc1N(CCCl)CCCl`
123 % of control

----------
Test system: L1210 leukemia ip in BDF1 mice, survival T/C
Experiment: NCI In Vivo Anticancer Drug Screen. Data for tumor model L1210 Leukemia (intraperitoneal) in B6D2F1 (BDF1) mice
Conditions: endpoint: mean survival time; dose: 100.0 mg/kg/injection; schedule: Q04DX003 (ip); vehicle: other; higher = longer survival
Toxic doses and inconclusive results are not listed. Square brackets hold non-standard residues; d marks the D form. Peptide text beside a SMILES is read from it. * marks the point of attachment. ξ: configuration not given here. Tos = Cc1ccc(S(=O)(=O)*)cc1; ξY = NC(Cc1ccc(O)cc1)C(=O)O
What T/C was measured for each of the following?

Note T/C for the compound shown: `CC(C)(C)c1ccc(C(=O)O)cc1Br`
113 % of control

Note T/C for the compound shown: CC1CC(C)(C)NC(=O)O1 (centres undefined)
90 % of control

Note T/C for the compound shown: `CNc1ccccc1CO`
95 % of control

Note T/C for the compound shown: Cc1ccc(C(=O)[O][Hg][CH2]C2COC([CH2][Hg][O]C(=O)c3ccc(C)cc3)CO2)cc1 (centres undefined)
95 % of control

Note T/C for the compound shown: COC(=O)C(Cc1ccc(O)cc1)NC(=O)CNS(=O)(=O)c1ccc(C)cc1 (stereo not drawn) (Tos-Gly-[ξY]-OMe)
105 % of control

Note T/C for the compound shown: `CN(C)C1(Cc2ccc(Cl)cc2)c2ccccc2-c2ccccc21`
105 % of control

Note T/C for the compound shown: `CCCNC(=O)Oc1ccc(C2CCCCC2)cc1`
100 % of control

Note T/C for the compound shown: `C/C(=C\c1ccccc1)C(=O)c1ccccc1`
101 % of control

Note T/C for the compound shown: `CN(C)C(=S)SSC(=S)N(C)C`
95 % of control

----------
System: L1210 leukemia ip in BDF1 mice, survival T/C
Assay: NCI In Vivo Anticancer Drug Screen. Data for tumor model L1210 Leukemia (intraperitoneal) in B6D2F1 (BDF1) mice
Details: endpoint: mean survival time; dose: 200.0 mg/kg/injection; schedule: Q01DX001 (ip); vehicle: saline; higher = longer survival
Experimental: The antitumor activity of compounds was measured in mice bearing transplantable tumors. Survival or tumor size were measured and the results are expressed as the measurement made in the treated group (T) divided by the measurement made in the vehicle treated control group (C). The tumor model used in this assay is L1210 Leukemia (intraperitoneal) in B6D2F1 (BDF1) mice
Inconclusive results and toxic doses are left out.
Observable: T/C

Note T/C for the compound shown: OC1C2COc3nc4ccccc4n3C(O2)C1O (stereo unspecified)
95 % of control

Note T/C for the compound shown: Cc1c(C)n(C2OC(CO)C(O)C2O)c(=O)[nH]c1=O (stereo unspecified)
108 % of control

Note T/C for the compound shown: Nc1ncnc2c1ncn2C1OC(CO)C(NC(=O)C(CCCCNC(=O)OCc2ccccc2)NC(=O)OCc2ccccc2)C1O (stereo unspecified)
100 % of control

Note T/C for the compound shown: COC1OCC(O)C(O)C1O (stereo unspecified)
95 % of control

Note T/C for the compound shown: CC(C)(C)OC(=O)N1C2c3ccccc3C1C1C2N=NN1c1ccccc1 (stereo unspecified)
95 % of control

Note T/C for the compound shown: `COc1cc(-c2cc(OC)c(N=N/C(=N/Nc3ccc([N+](=O)[O-])cc3)c3ccc([N+](=O)[O-])cc3)cc2Cl)c(Cl)cc1N=N/C(=N\Nc1ccc([N+](=O)[O-])cc1)c1ccc([N+](=O)[O-])cc1`
103 % of control

Note T/C for the compound shown: `Cc1ccc(CC(=O)c2c(C)[nH]c3ccccc23)cc1C`
96 % of control

Note T/C for the compound shown: `Nc1ccc(C(=O)Nc2cccc(S(=O)(=O)F)c2)cc1`
106 % of control

Note T/C for the compound shown: `O=S(=O)(c1ccccc1)c1ccc(O)cc1`
108 % of control

Note T/C for the compound shown: `O=c1[nH]nc(Sc2ccccc2)c(=O)[nH]1`
97 % of control

Note T/C for the compound shown: `COc1cc(C[N+]23CC[N+](Cc4cc(OC)c(OC)c(OC)c4)(CC2)C3)cc(OC)c1OC`
98 % of control

Note T/C for the compound shown: `CC[CH2][Ge]([CH2]CC)([CH2]CC)[O][Ge]([CH2]CC)([CH2]CC)[CH2]CC`
104 % of control

Note T/C for the compound shown: `CCN(CC)CCNc1ccccc1Cl`
101 % of control

Note T/C for the compound shown: C1OC1CN1CCN(CC2CO2)CC1 (stereo unspecified)
90 % of control

Note T/C for the compound shown: CN(C)c1nc(N)nc2c1nc(Cl)n2C1OC(CO)C(O)C1O (stereo unspecified)
94 % of control

Note T/C for the compound shown: O=P1(Nc2ccc(Cl)cc2)OCC2(CO1)COP(=O)(Nc1ccc(Cl)cc1)OC2 (stereo unspecified)
101 % of control

Note T/C for the compound shown: `COc1cc(C)c([N+](=O)[O-])cc1OC`
97 % of control

Note T/C for the compound shown: `Cc1ccc2c(c1)C(=O)CCC2`
95 % of control

Note T/C for the compound shown: O=[N+]([O-])c1nccn1C1OC(CO)C(O)C1O (stereo unspecified)
102 % of control

Note T/C for the compound shown: `CC(C)(C)NC(=O)Nc1ccc(Cl)c(Cl)c1`
100 % of control

Note T/C for the compound shown: `CCC(C#N)(CC)c1ccccc1`
89 % of control

Note T/C for the compound shown: `CCOc1ccc(-n2c(C)nc3ccccc3c2=O)cc1CNCCBr`
111 % of control

Note T/C for the compound shown: O=C1CCCC2C1C1(O)CCC2(O)c2cccc(O)c21 (stereo unspecified)
103 % of control

Note T/C for the compound shown: `Clc1cc(Cl)c(OCC#CI)cc1Cl`
93 % of control

Note T/C for the compound shown: `O=C(NO)c1ccccc1F`
110 % of control

Note T/C for the compound shown: `O=C(O)Cc1ccc2ccccc2c1`
107 % of control

----------
What T/C was measured for each of the following?
Tested on: L1210 leukemia ip in BDF1 mice, survival T/C
Experiment: NCI In Vivo Anticancer Drug Screen. Data for tumor model L1210 Leukemia (intraperitoneal) in B6D2F1 (BDF1) mice
Details: endpoint: mean survival time; dose: 25.0 mg/kg/injection; schedule: Q01DX009 (ip); vehicle: saline; higher = longer survival
Toxic doses and inconclusive results are not listed.

Note T/C for the compound shown: `C[C@H]1CC2=CC(=O)CC[C@]2(C)[C@H]2CC[C@@]3(C)[C@@H](CC[C@]3(C)O)[C@H]12`
97 % of control

Note T/C for the compound shown: `CN(C(=O)/C=C/C(=O)O)c1ccccc1`
104 % of control

Note T/C for the compound shown: CN(C)CCCN1c2ccccc2S(=O)c2ccc(Cl)cc21 (stereo unspecified)
102 % of control

Note T/C for the compound shown: CNC(CNC(CO)CC(C)C)Cc1ccc(OCc2ccccc2)cc1 (stereo unspecified)
91 % of control

Note T/C for the compound shown: CCN(CC)CCCOC(=O)C(CCC(C)C)c1ccccc1C (stereo unspecified)
102 % of control

Note T/C for the compound shown: `CCOC(=O)c1ccc(NCC(C)(C)N(C)C)cc1`
89 % of control

----------
Tested on: L1210 leukemia ip in BDF1 mice, survival T/C
Assay: NCI In Vivo Anticancer Drug Screen. Data for tumor model L1210 Leukemia (intraperitoneal) in B6D2F1 (BDF1) mice
Details: endpoint: mean survival time; dose: 100.0 mg/kg/injection; schedule: Q01DX009 (ip); vehicle: saline
Inconclusive results and toxic doses are left out. Rule as the data show it: active = T/C of 150% or more; inactive = T/C below 125%.
Write down the outcome that applies. Available outcomes: true (1) for active, false (0) for inactive

What call does the record list for `N=C(N[N+](=O)[O-])N(CCC(=O)O)N=O` ?
false (0)

What call does the record list for CC1C[N+](C)(C)NC1=O (stereo not given) ?
false (0)

What call does the record list for `Cc1nccc(=O)[nH]1` ?
false (0)

What call does the record list for NC(Cc1cc(I)c(O)c(I)c1)C(=O)O (stereo not given) ?
false (0)

What call does the record list for `O=c1c(O)c(-c2ccc(O)c(O)c2)oc2cc(O)cc(O)c12` ?
false (0)

What call does the record list for CC(C)(C)C1CCC(O)C(Cl)C1 (stereo not given) ?
false (0)

What call does the record list for NCC1OC(OC2C(CO)OC(OC3C(O)C(N)CC(N)C3OC3OC(CO)C(O)CC3N)C2O)C(N)C(O)C1OC1OC(CO)C(O)C(O)C1O (stereo not given) ?
false (0)

What call does the record list for `NC(=O)c1ccc[n+](CCO)c1` ?
false (0)

What call does the record list for `CC(=NCC(=O)O)c1ccccc1` ?
false (0)

What call does the record list for Cc1ccc(N2CCCC(=O)C(O)CCC2)cc1 (stereo not given) ?
false (0)

What call does the record list for `O=[N+]([O-])c1cc(C=Nc2ccccc2)ccc1Cl` ?
false (0)

What call does the record list for O=C1CCCC2C1C1(O)CCC2(O)c2cccc(O)c21 (stereo not given) ?
false (0)

What call does the record list for `CC(=O)OCCC(CCOC(C)=O)=C1N=C(c2ccccc2)OC1=O` ?
false (0)

What call does the record list for `CCOC(=O)C1=C(C)NC(C)=C(C(=O)OCC)C1` ?
false (0)

What call does the record list for `CCCCCCCCCCNCCC(=O)O` ?
false (0)

What call does the record list for `C[N+](C)(C)CN1C(=O)c2ccccc2C1=O` ?
false (0)

What call does the record list for `CCOC(=O)NC(=O)CC` ?
false (0)

What call does the record list for `COc1ccc(C(C)=O)c(OC)c1` ?
false (0)

What call does the record list for `Clc1c(Cl)c(/C=N/Nc2ccccc2)c(Cl)c(Cl)c1/C=N\Nc1ccccc1` ?
false (0)

What call does the record list for `Cc1ccc(S(=O)(=O)N2CCC(Br)(Br)C(=O)c3ccccc32)cc1` ?
false (0)

What call does the record list for `O=C(O)c1ccc(O)c([N+](=O)[O-])c1` ?
false (0)

What call does the record list for `CC1=NN(c2ccc(S(=O)(=O)O)cc2)C(=O)/C1=C\c1c(C)[nH]n(-c2ccc(S(=O)(=O)O)cc2)c1=O` ?
false (0)

What call does the record list for `CCSCN(C)C` ?
false (0)

What call does the record list for C=CCNC(=S)Nc1cccc(C(C)O)c1 (stereo not given) ?
false (0)

What call does the record list for `CN(C(=O)/C=C/C(=O)O)c1ccccc1` ?
false (0)

What call does the record list for CC1(C)OC2COC(c3[nH]nc4c(=O)[nH]c(=O)[nH]c34)C2O1 (stereo not given) ?
true (1)

What call does the record list for `CCOC(CCc1c(C)nc[nH]c1=O)OCC` ?
false (0)

What call does the record list for `CNc1ccc(C(=O)O)cc1` ?
false (0)

What call does the record list for `CCOCCCSP(SCCCOCC)SCCCOCC` ?
false (0)

What call does the record list for C/C=C\C(C)C(C)C (stereo not given) ?
false (0)

What call does the record list for `OCC1(O)CCC1` ?
false (0)

What call does the record list for `CC(=O)Nc1ccc2nc3ccc(NC(C)=O)cc3[n+](-c3ccccc3)c2c1` ?
true (1)

What call does the record list for `CC(=O)NCC(C)(C)c1ccccc1` ?
false (0)

What call does the record list for `Cc1ccc(S(=O)(=O)OCC(CO)(COS(=O)(=O)c2ccc(C)cc2)[N+](=O)[O-])cc1` ?
false (0)

What call does the record list for `CCOC(=O)/C(Cc1ccc2ccccc2n1)=N/O` ?
false (0)

What call does the record list for `CC1(C)C(=O)Nc2ccccc2N1C(=O)CN1CC2CCC(CC2)C1` ?
false (0)

What call does the record list for CC(=O)OCC1OC(n2cnc3c(=O)[nH]nnc32)C(OC(C)=O)C1OC(C)=O (stereo not given) ?
false (0)

What call does the record list for CCOC(=O)C(CC1OCCO1)C1=NC(C)(C)CC(C)O1 (stereo not given) ?
false (0)

What call does the record list for O=C(O)C(Br)CN1C(=O)c2ccccc2C1=O (stereo not given) ?
false (0)

What call does the record list for `CCN(CC)CCOC(=O)c1ccco1` ?
false (0)
